subjectOfTest: UniProt:P16050
Sequence (P16050 whole entry): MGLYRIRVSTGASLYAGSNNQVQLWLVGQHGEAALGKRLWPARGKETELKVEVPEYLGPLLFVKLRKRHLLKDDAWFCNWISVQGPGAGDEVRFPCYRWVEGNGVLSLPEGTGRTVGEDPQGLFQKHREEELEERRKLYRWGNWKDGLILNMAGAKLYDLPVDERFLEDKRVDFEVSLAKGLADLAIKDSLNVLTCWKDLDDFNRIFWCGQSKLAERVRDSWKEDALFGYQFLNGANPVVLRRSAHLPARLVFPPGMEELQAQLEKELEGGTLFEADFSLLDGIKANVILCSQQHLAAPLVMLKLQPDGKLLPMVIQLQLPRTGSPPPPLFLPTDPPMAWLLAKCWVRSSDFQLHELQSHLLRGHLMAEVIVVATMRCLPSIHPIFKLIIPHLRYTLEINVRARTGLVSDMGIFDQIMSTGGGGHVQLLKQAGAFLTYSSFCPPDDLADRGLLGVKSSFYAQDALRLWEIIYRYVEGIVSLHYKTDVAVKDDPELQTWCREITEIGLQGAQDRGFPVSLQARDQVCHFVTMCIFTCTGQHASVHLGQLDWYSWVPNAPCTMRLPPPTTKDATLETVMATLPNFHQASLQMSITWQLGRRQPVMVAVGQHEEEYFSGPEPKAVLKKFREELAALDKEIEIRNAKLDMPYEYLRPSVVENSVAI
experimentNotes: Kinetic inhibition assay of 15-hLO-1
Type: biochemical
conditionParameters: Kis, substrate AA, 13-HPODE activator, noncompetitive
endpointName: Ki

Exam item: Query: Ki; subject: CCCCC/C=C\S/C=C\CCCCCCCC(=O)O [Compound 11-thiaLA, 11-Thialinoleic acid]
Marked response: 11.4 µM

---

subjectOfTest: soybean lipoxygenase-1 (sLO-1) (Glycine max)
Sequence (P08170 whole entry): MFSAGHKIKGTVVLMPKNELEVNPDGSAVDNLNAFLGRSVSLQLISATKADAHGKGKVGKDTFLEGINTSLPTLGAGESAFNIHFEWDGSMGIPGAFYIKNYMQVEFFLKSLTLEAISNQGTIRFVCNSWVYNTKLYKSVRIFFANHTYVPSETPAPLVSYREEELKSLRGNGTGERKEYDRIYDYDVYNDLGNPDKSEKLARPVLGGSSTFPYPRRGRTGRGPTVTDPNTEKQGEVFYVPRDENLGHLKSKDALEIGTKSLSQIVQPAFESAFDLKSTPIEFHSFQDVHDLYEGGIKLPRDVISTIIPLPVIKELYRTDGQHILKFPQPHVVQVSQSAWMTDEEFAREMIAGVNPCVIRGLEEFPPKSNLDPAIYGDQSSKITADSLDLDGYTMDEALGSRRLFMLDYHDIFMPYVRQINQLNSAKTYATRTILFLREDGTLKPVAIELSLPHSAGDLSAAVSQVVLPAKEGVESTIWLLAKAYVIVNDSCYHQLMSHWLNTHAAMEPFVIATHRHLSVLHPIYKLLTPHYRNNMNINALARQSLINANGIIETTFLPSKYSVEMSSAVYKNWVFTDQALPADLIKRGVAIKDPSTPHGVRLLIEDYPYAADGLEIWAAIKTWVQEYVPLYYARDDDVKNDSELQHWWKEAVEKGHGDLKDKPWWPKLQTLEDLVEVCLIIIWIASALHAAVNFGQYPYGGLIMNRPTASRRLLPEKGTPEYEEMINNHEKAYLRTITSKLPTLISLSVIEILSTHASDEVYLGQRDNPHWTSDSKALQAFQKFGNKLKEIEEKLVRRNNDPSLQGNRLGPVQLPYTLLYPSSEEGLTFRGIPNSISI
experimentNotes: Kinetic inhibition assay of sLO-1
Type: biochemical
conditionParameters: Ki (competitive inhibition), substrate linoleic acid, pH 10.0
endpointName: pKi
# pKi: negative log10 of molar concentration; output just the value

compound=CCCCC/C=C\S/C=C\CCCCCCCC(=O)O subjectoftest="soybean lipoxygenase-1 (sLO-1) (Glycine max)" number=4.66

Let us examine a further case.
Exam item: // fetch soybean lipoxygenase-1 (sLO-1) (Glycine max) pKi for CCCCS/C=C\C/C=C\CCCCCCCC(=O)O
Marked response: 4.46
